These measurements were taken from the supplement of paper PMC6379048.

target: LRPPRC (UniProt P42704); test: EC50 of free RNA motif oligo competing protein binding to immobilised probe

{"entry_sequence": "CUGUCCU", "EC50, µM": 2.27}
{"entry_sequence": "AAUAAA", "EC50, µM": 2.88}

====

Target: HNRNPM (UniProt P52272)
Sequence: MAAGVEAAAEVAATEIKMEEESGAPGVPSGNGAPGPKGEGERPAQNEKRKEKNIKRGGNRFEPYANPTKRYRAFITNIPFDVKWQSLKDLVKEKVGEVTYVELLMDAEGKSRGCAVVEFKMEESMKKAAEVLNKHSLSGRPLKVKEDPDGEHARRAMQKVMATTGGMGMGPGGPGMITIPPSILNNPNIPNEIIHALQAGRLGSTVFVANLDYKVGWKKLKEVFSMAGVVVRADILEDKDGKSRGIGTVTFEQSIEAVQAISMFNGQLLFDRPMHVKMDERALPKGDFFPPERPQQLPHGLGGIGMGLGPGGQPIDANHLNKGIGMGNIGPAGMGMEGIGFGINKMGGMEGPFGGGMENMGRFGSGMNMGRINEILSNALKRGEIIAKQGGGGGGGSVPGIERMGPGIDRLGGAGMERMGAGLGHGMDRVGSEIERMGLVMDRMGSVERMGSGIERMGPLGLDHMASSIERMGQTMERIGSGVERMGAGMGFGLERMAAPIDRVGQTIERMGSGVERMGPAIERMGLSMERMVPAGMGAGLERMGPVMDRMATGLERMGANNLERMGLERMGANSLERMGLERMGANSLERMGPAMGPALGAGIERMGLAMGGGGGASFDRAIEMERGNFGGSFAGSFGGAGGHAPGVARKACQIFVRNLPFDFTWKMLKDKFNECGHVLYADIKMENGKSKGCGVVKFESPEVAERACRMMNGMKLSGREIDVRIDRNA
Assay: EC50 of free RNA motif oligo competing protein binding to immobilised probe

{"entry_sequence": "UAUUUAU", "unit_descriptor": "µM", "EC50": 6.8}
